# Tested on: normal primary NK cells, pool 3 (3 donors) (IL-2 2.5 ng/mL)
# protocol_details: drug sensitivity score (DSS) (DSS units); higher = more sensitive; extreme values may be limits of the assay
# conditions: 72 h
assay_metric: drug sensitivity score
API doc: respond with a numeric literal and nothing else, no unit.

# compound, target_desc, drug sensitivity score
data = [
    ("Nc1ncn([C@H]2C[C@H](O)[C@@H](CO)O2)c(=O)n1 [Decitabine] (max concentration tested 10000 nM)", "normal primary NK cells, pool 3 (3 donors) (IL-2 2.5 ng/mL)", 3.32),
    ("CNC(=O)c1ccc(N2C(=S)N(c3cnc(C#N)c(C(F)(F)F)c3)C(=O)C23CCC3)cc1F [ARN 509] (max concentration tested 10000 nM)", "normal primary NK cells, pool 3 (3 donors) (IL-2 2.5 ng/mL)", 0),
    ("CC[C@@]1(O)C(=O)OCc2c1cc1n(c2=O)Cc2cc3ccccc3nc2-1 [Camptothecin] (max concentration tested 5000 nM)", "normal primary NK cells, pool 3 (3 donors) (IL-2 2.5 ng/mL)", 8.23),
    ("CCOc1ccn(-c2ccc(F)cc2)c(=O)c1C(=O)Nc1ccc(Oc2ccnc(N)c2Cl)c(F)c1 (max concentration tested 2500 nM)", "normal primary NK cells, pool 3 (3 donors) (IL-2 2.5 ng/mL)", 0),
    ("O=P1(N(CCCl)CCCl)NCCCO1 (stereo unspecified) [Cyclophosphamide] (max concentration tested 40000 nM)", "normal primary NK cells, pool 3 (3 donors) (IL-2 2.5 ng/mL)", 0.44),
]

Proceed to the following item.
The compound Nc1nc(Cl)nc2c1ncn2[C@H]1C[C@H](O)[C@@H](CO)O1 [Cladribine] (max concentration tested 1000 nM) showed drug sensitivity score equal to 18.4

###

# System: DERL-7 (IL-2 2.5 ng/mL)
# protocol_details: drug sensitivity score (DSS) (DSS units); higher = more sensitive; extreme values may be limits of the assay
# conditions: 72 h
Recorded drug sensitivity score values for a group of compounds are listed next.
API doc: respond with a numeric literal and nothing else, no unit.

See these solved cases before continuing.
# compound, assay_metric, assay_value
records = [
    ("C[C@]1(c2nc3c(C(N)=O)cccc3[nH]2)CCCN1 [Veliparib] (max concentration tested 10000 nM)", "drug sensitivity score", 0.78),
    ("O=C(O)CCCCC(CCSCc1ccccc1)SCc1ccccc1 (configuration not stated) [CPI-613] (max concentration tested 10000 nM)", "drug sensitivity score", 0),
    ("Cc1nc(NC(=O)N2CCC[C@H]2C(N)=O)sc1-c1ccnc(C(C)(C)C(F)(F)F)c1 [Alpelisib] (max concentration tested 2500 nM)", "drug sensitivity score", 0.82),
    ("O=C(Nc1cccc(Nc2ncc(Br)c(NCCc3cnc[nH]3)n2)c1)N1CCCC1 [BX-912] (max concentration tested 10000 nM)", "drug sensitivity score", 11.4),
    ("COc1cc2c(NC3CCN(C(C)C)CC3)nc(N3CCC(F)(F)CC3)nc2cc1OCCCN1CCCC1 [UNC0642] (max concentration tested 10000 nM)", "drug sensitivity score", 5.6),
    ("O=C(c1ccc(C(=O)N2CCC(N3CCCC3)CC2)c(Nc2ccccc2)c1)N1CCC(N2CCCC2)CC1 [UNC1215] (max concentration tested 30000 nM)", "drug sensitivity score", 0),
]

The compound Cc1cc(C)c(/C=C2\C(=O)Nc3ccccc32)[nH]1 [Semaxanib] (max concentration tested 10000 nM) showed drug sensitivity score equal to 0

The compound COc1cc(C(=O)O)ccc1NC(=O)[C@@H]1N[C@@H](CC(C)(C)C)[C@](C#N)(c2ccc(Cl)cc2F)[C@H]1c1cccc(Cl)c1F [RG7388] (max concentration tested 10000 nM) showed drug sensitivity score equal to 23.8

The compound CN1CCC(COc2cnc(-c3cccc(Cn4nc(-c5cccc(C#N)c5)ccc4=O)c3)nc2)CC1 (max concentration tested 1000 nM) showed drug sensitivity score equal to 2.76

The compound CN1CCC(CNc2ccc3ncc(-c4cccc(OC(F)(F)F)c4)n3n2)CC1 [SGI-1776] (max concentration tested 10000 nM) showed drug sensitivity score equal to 10.6

The compound CC[C@@H]1C(=O)N(C)c2cnc(Nc3ccc(C(=O)NC4CCN(C)CC4)cc3OC)nc2N1C1CCCC1 [BI 2536] (max concentration tested 1000 nM) showed drug sensitivity score equal to 24.6

The compound Nc1nc(N)c2nc(-c3cccc(O)c3)c(-c3cccc(O)c3)nc2n1 [TG100-115] (max concentration tested 10000 nM) showed drug sensitivity score equal to 0

These measurements were taken from the supplement of paper PMC5908809.
